Assay Summary: Cell Viability qHTS for small molecule stabilizers of the endoplasmic reticulum resident proteome (AID 1508629);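 note: human SH-SY5Y neuroblastoma cells carrying the GLuc-SERCaMP reporter; compound exposure about 46 h in total before the viability read; % is set by controls: 0 for no effect and ±100 for the full control effect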
Condition Notes: cell viability counter-screen, 100 nM thapsigargin for final 4 h
Results filed as inconclusive are left out. Active and inactive are the calls of the source. Calls come from the whole dose curve; as a rule, active = well fitted cell-killing curve with a large enough effect; inconclusive = small, poorly fitted or top-dose-only effect, or effect the other way; inactive = no such curve, though single readings can be large or run the other way.
Readout Label: max response

So what does the record say about max response for CCN(CC)CCCC(C)Nc1ccnc2cc(Cl)ccc12 (centres undefined) ?
-9.95% (inactive)

// max response lookup, key: COc1ccc2nc(S(=O)Cc3ncc(C)c(OC)c3C)[nH]c2c1 (centres undefined)
-2.62% (inactive)

Report max response for OC(CN1CCC(Cc2ccc(F)cc2)CC1)c1ccc(Cl)cc1 (centres undefined) please.
-25.9% (inactive)

For the molecule shown here, Oc1ccc(C2CNCCc3c2cc(O)c(O)c3Cl)cc1 (centres undefined) , give the reported max response.
-10.9% (inactive)
